melting point overview

Examples from the recorded data:
> print(dat)
                                   compound  reported.metric         result
1  CCN(Cc1csc(N)c1C(=O)c1ccc(Cl)cc1)c1ccccc1    melting point  130 to 132 °C
2  CCCCCCCCCCNC(=O)c1ccc(N(CC(=O)O)CC(=O)O)cc1    melting point  155 to 157 °C
3                       BrCCc1ccc2c(c1)CCO2    melting point    60 to 62 °C
4  Cc1ccc(S(=O)(=O)OCC2Cc3cccc(-c4cccc(Cl)c4)c3O2)cc1 (stereo not given)    melting point  101 to 103 °C
5  COc1cc(C(=O)NS(=O)(=O)c2ccccc2C)ccc1Cc1c[nH]c2ccc(NC(=O)CC3CCCC3)cc12    melting point  248 to 250 °C
6  COc1cc(OC)c(-c2ccc(N(C)CCN(C)c3ccc(-c4c(OC)cc(OC)cc4OC)nc3)cn2)c(OC)c1    melting point  264 to 265 °C
7  CCCCCC(CC(=O)Nc1cc(CO)ccc1C(C)(C)C)c1ccccc1C(F)(F)F (stereo not given)    melting point  147 to 148 °C
8  CC(=Nc1ccc(C2=NNC(=O)CC2C)cc1)c1ccc(O)cc1O (stereo not given)    melting point  185 to 190 °C

Task: # melting point lookup, item O=C1CCSc2ncccc21
Output: 66 to 68 °C

Task: # melting point lookup, item CCCCCCCCCCCCCCCCCCN(C)CC(O)CO (stereo not given)
Output: 59 °C

Task: # melting point lookup, item O=C(O)CCC(=O)c1ccc(Cl)c(S(=O)(=O)NCc2ccccc2Cl)c1
Output: 158 °C

Task: # melting point lookup, item CCn1nc(-c2nc(C(N)=O)c(N)nc2-c2ccccc2)ccc1=O
Output: > 250 °C

Task: # melting point lookup, item CCC(=O)NC/C=C1\CCc2ncc3c(c21)CCO3
Output: 163 to 164 °C

Task: # melting point lookup, item COc1ccc(-c2ccc(C#N)cn2)cc1-c1nc2cc(C#N)ccc2[nH]1
Output: 316 to 319 °C

Task: # melting point lookup, item CCOCCn1c(C)nc2c(N)ncc(C)c21
Output: 129 to 130 °C

Task: # melting point lookup, item CS(=O)(=O)c1ccc(N2CC(O)(C(F)(F)F)N=C2c2ccccn2)cc1 (stereo not given)
Output: 195 to 198 °C

Task: # melting point lookup, item COC1=NC2C=C(C(=O)NCC3CC3)C(NC(=O)c3cc(C(F)(F)F)nn3-c3ncccc3Cl)=C(Cl)C2S1 (stereo not given)
Output: 199 to 201 °C

Task: # melting point lookup, item C[C@@H](n1cnc2cc(-c3ccc(C(N)=O)cc3)sc2c1=O)[C@](O)(Cn1cncn1)c1ccc(F)cc1F
Output: 280 to 285 °C

Task: # melting point lookup, item Cc1cccc(Nc2cc(Nc3cccc(C)c3)ncn2)c1
Output: 242 to 244 °C

Task: # melting point lookup, item CCSc1ncc(S(N)(=O)=O)s1
Output: 95 to 96 °C
